- Test system: Vero E6 infected with SARS-CoV-2
- experimental-protocol: inhibition of SARS-CoV-2 cytopathic effect; higher = more antiviral protection, active = above 15
- condition-info: 8.33 nM; 48 h
experimental-readout: inhibition of SARS-CoV-2 cytopathic effect (%)
Answers are plain numbers, in %.

Examples with answers:
• O.O.O.O.O=C([O-])CC(O)(CC(=O)[O-])C(=O)[O-].[Li+].[Li+].[Li+] [lithium-citrate] = -0.51
• C[C@@H]1CC[C@H]2[C@@H](C)C(=O)O[C@@H]3O[C@@]4(C)CC[C@@H]1[C@]32OO4 [artemisinin] = 0.05
• CNC(=O)c1cccc2cc(Oc3ccnc4cc(OCC5(N)CC5)c(OC)cc34)ccc12 [lucitanib] = 2.44

For every item in the list below, what is its measured inhibition of SARS-CoV-2 cytopathic effect?
1. CN(Cc1cc(Br)cc(Br)c1N)C1CCCCC1 [bromhexine]
2. O=C(Cc1ccc(Cl)c(Cl)c1)N1CCCC[C@@H]1CN1CCCC1

[out]
1: 0.02; 2: 2.64

Quick batch: inhibition of SARS-CoV-2 cytopathic effect for everything below.
1. Cc1oc(=O)oc1COC(=O)C1=C([C@H]2CCCO2)S[C@@H]2[C@@H]([C@@H](C)O)C(=O)N12 [faropenem-medoxomil]
2. C[C@H](NC[C@H](O)CP(=O)(O)Cc1ccccc1)c1ccc(Cl)c(Cl)c1
3. CCOC(=O)C1=C(COCCN)NC(C)=C(C(=O)OC)C1c1ccccc1Cl (stereo not drawn) [amlodipine]
4. C=CC(=O)Nc1cccc(Nc2nc(Nc3ccc(OCCOC)cc3)ncc2F)c1
5. COc1ccccc1N1CCN(CCCCNC(=O)c2ccc(-c3ccc(C(C)=O)cc3)cc2)CC1
6. C[C@H](N)Cn1ccc2cc(F)c(Cl)cc21
7. Cc1[nH]c(/C=C2\C(=O)Nc3ccc(S(=O)(=O)Cc4c(Cl)cccc4Cl)cc32)c(C)c1C(=O)N1CCC[C@@H]1CN1CCCC1

[out]
-1.09
3.89
-0.7
2.81
-3.1
4.09
-2.66

Return reported inhibition of SARS-CoV-2 cytopathic effect values for all items listed beneath this line.
1. CC(=O)C1=C(O)C=C2Oc3c(C(C)=O)c(O)c(C)c(O)c3C2(C)C1=O (stereo not drawn) [usniacin-(+)]
2. CCCCN1CCC(CCC(=O)c2cc(Cl)c(N)cc2OC)CC1
3. Cc1cc(-c2ncc(CC(=O)Nc3ccc(-c4cnccn4)cn3)cc2C)ccn1

[out]
1. 2.31
2. -0.19
3. -0.01

###

- Test system: Vero E6 infected with SARS-CoV-2
- experimental-protocol: inhibition of SARS-CoV-2 cytopathic effect; higher = more antiviral protection, active = above 15
- condition-info: 833.33 nM; 48 h
experimental-readout: inhibition of SARS-CoV-2 cytopathic effect (%)
Give bare numbers, in %.

Solved entries (count: 10):
- COc1ccc(/C=C/C(=O)/C=C(O)/C=C/c2ccc(OC)c(OC)c2)cc1OC: 5.15
- CN1C(CCl)Nc2cc(Cl)c(S(N)(=O)=O)cc2S1(=O)=O (centres undefined) [methyclothiazide]: 1
- CC(C)c1cc(-c2n[nH]c(=O)n2-c2ccc3c(ccn3C)c2)c(O)cc1O: -1.16
- CCCOc1ccc2[nH]c(NC(=O)OC)nc2c1: -2.39
- c1cn2cc(-c3ccc4cn[nH]c4c3)nc(Nc3ccc(N4CCOCC4)cc3)c2n1: 0.03
- N[C@@H](C(=O)N[C@@H]1C(=O)N2C(C(=O)O)=C(Cl)CS[C@H]12)c1ccccc1: -1.09
- CCS(=O)(=O)N1CCC([C@@H](C)n2c(C)c(C(=O)NCc3c(OC)cc(C)[nH]c3=O)c3ccccc32)CC1: 0.2
- Cc1ccc(C(=O)N(CCCN)[C@@H](c2nc3cc(Cl)ccc3c(=O)n2Cc2ccccc2)C(C)C)cc1: -2.99
- CCCCOc1cc(C(=O)OCCN(CC)CC)ccc1N: 3.06
- CNC(=O)[C@@H](Cc1ccccc1)N(C)C(=O)[C@@H](Cc1ccc2ccccc2c1)N(C)C(=O)/C=C/CC(C)(C)N: 2.19

Field: inhibition of SARS-CoV-2 cytopathic effect. Fill in for each record below.
1. N=C(N)Nc1ccc(C(=O)Oc2ccc3cc(C(=N)N)ccc3c2)cc1
2. O=C(O)CCN(O)C(=O)CCCCCCCCC1CC1
3. O[C@H]1[C@H]2[C@H](O)CCCN2C[C@H]1O
4. Cn1c(=O)c2c(ncn2CC(=O)O)n(C)c1=O
5. Cc1ccc(/C=N/NC(=O)c2ccccc2Oc2ccccc2)o1
6. O=C(Oc1ccc([N+](=O)[O-])cc1)N1CCN(Cc2cccc(Oc3ccccc3)c2)CC1
7. COc1ccc(Cl)cc1NC(=O)Nc1cc(C)nc2ccccc12
8. CC(=O)[C@H]1CC[C@H]2[C@@H]3C[C@H](C)C4=CC(=O)CC[C@]4(C)[C@H]3[C@@H](O)C[C@]12C

[out]
1. 3.65
2. 4.48
3. -1.43
4. 0.66
5. 0.13
6. -1.53
7. 1.18
8. 0.73

`CCCn1cnc2c1c(=O)n(CCCCC(C)=O)c(=O)n2C` tested on Vero E6 infected with SARS-CoV-2 gave inhibition of SARS-CoV-2 cytopathic effect: 2.05

###

- Test system: Vero E6 infected with SARS-CoV-2
- experimental-protocol: SARS-CoV-2 infection rate relative to infected DMSO; higher = more infection, active = 60 or less
- condition-info: 24 h
experimental-readout: SARS-CoV-2 infection rate (%)
One number for each entry, in %.

- COc1cc2ncnc(Nc3ccc(F)c(Cl)c3)c2cc1OCCCN1CCOCC1 [gefitinib] (10 µM): 112
- CC(C)c1cc(C(=O)N2Cc3ccc(CN4CCN(C)CC4)cc3C2)c(O)cc1O (10 µM): 118

Can you give me SARS-CoV-2 infection rate for all of these, one by one?
1. CC1=C(C(=O)Nc2cc3cn[nH]c3cc2F)C(c2ccc(C(F)(F)F)cc2)CC(=O)N1 (stereo not drawn) (10 µM)
2. O=C(O)C[CH2][Ge](=[O])[O][Ge](=[O])[CH2]CC(=O)O [propagermanium] (10 µM)
3. CCCOc1ccc2c(c1)CC[C@@H]1[C@@H]2CC[C@]2(C)[C@@H](OC)CC[C@@H]12 [promestriene] (10 µM)

[out]
1: 99; 2: 94; 3: 99.5

###

- System: Vero E6 infected with SARS-CoV-2
- experimental-protocol: inhibition of SARS-CoV-2 cytopathic effect; higher = more antiviral protection, active = above 15
- condition-info: 1 nM; 48 h
Exercise: for every item that follows, state its recorded inhibition of SARS-CoV-2 cytopathic effect.
Numbers only, in %.

* CNC(=O)c1ccc2c(c1)S(=O)(=O)c1ccccc1C2=O | 0.15

Here are 4 molecules. What values of inhibition of SARS-CoV-2 cytopathic effect were reported for them?
1. C[C@]12C=CC(=O)C=C1CC[C@@H]1[C@@H]2[C@@H](O)C[C@@]2(C)[C@H]1CC[C@]2(O)C(=O)COC(=O)CCC(=O)O [prednisolone-hemisuccinate]
2. COc1cc(SC)ccc1C(=O)N1CCC(Cc2ccccc2)CC1
3. N[C@@H]1c2cccnc2[C@H](OC(=O)N2CCC(n3c(=O)[nH]c4ncccc43)CC2)CC[C@H]1c1cccc(F)c1F
4. COc1ccc(CN(CCN(C)C)c2ncccn2)cc1

[out]
1: -1.49; 2: 4.96; 3: -0.34; 4: 0.64

###

- Tested on: Vero E6 infected with SARS-CoV-2
- experimental-protocol: inhibition of SARS-CoV-2 cytopathic effect; higher = more antiviral protection, active = above 15
- condition-info: 8.33 nM; 48 h
experimental-readout: inhibition of SARS-CoV-2 cytopathic effect (%)
Answers are plain numbers, in %.

* Cn1c(=O)c2c(ncn2CC(=O)Nc2ccc(-c3ccccc3)nn2)n(C)c1=O | 0.06
* C=CCN(C)CCCCCCOc1ccc(C(=O)c2ccc(Br)cc2)c(F)c1 | 1.12
* CN1[C@@H]2CC[C@H]1C[C@@H](OC(c1ccccc1)c1ccccc1)C2 [benztropine-mesylate] | -0.55

Record inhibition of SARS-CoV-2 cytopathic effect for all entries; do not skip any.
1. COc1cc(N2CCC(N3CCN(C)CC3)CC2)ccc1Nc1ncnc(Nc2ccccc2S(=O)(=O)C(C)C)n1
2. CN1CCN(c2ncc(-c3cc(Cl)cc(Cl)c3Cl)c(N)n2)CC1
3. CN(C)CCc1c[nH]c2ccc(Cn3cncn3)cc12

[out]
-0.68
-4.99
0.07

Quick note, inhibition of SARS-CoV-2 cytopathic effect for `CC[C@H](C)[C@H](N)C1=N[C@H](C(=O)N[C@@H](CC(C)C)C(=O)N[C@H](CCC(=O)O)C(=O)N[C@H](C(=O)N[C@H]2CCCCNC(=O)[C@H](CC(N)=O)NC(=O)[C@@H](CC(=O)O)NC(=O)[C@H](Cc3cnc[nH]3)NC(=O)[C@@H](Cc3ccccc3)NC(=O)[C@H]([C@@H](C)CC)NC(=O)[C@@H](CCCN)NC2=O)[C@@H](C)CC)CS1` landed at 2.89
